I'd be grateful if you could share measured MIC for these entries.
# System: Escherichia coli
# PROCEDURE DETAILS: Antibacterial activity against Escherichia coli ATCC […] expressing NDM-1 beta-lactamase after 18 hrs by Mueller-Hinton broth microdilution method
# Format: functional
Report the figure in µg/mL without appending any unit label.

// query Query (molecule): `COc1cccc(Nc2c3ccccc3[n+](C)c3c2oc2ccccc23)c1.[I-]` ; field requested: MIC
// result 12

// query Another: `COc1ccc(Nc2c3ccccc3[n+](C)c3c2[nH]c2ccccc23)cc1.[I-]`
// result 6

// query Another: `Cc1ccc(Nc2c3ccccc3[n+](C)c3c2oc2ccccc23)cc1.[I-]`
// result 12

// query Another: `C[n+]1c2ccccc2c(Nc2ccc(F)cc2)c2oc3ccccc3c21.[I-]`
// result 12

// query Another: `Cc1cc(F)ccc1Nc1c2ccccc2[n+](C)c2c1[nH]c1ccccc12.[I-]`
// result 8

// query Another: `C[n+]1c2ccccc2c(Nc2ccc(F)cc2F)c2oc3ccccc3c21.[I-]`
// result 12

// query Another: `CCc1ccc(Nc2c3ccccc3[n+](C)c3c2oc2ccccc23)cc1.[I-]`
// result 12

// query Another: `C[n+]1c2ccccc2c(Nc2ccccc2)c2[nH]c3ccccc3c21.[I-]`
// result 12

// query Another: `COc1ccccc1Nc1c2ccccc2[n+](C)c2c1oc1ccccc12.[I-]`
// result 12

// query Another: `C[n+]1c2ccccc2c(Nc2ccc(F)cc2F)c2[nH]c3ccccc3c21.[I-]`
// result 8

// query Another: `CCOc1ccccc1Nc1c2ccccc2[n+](C)c2c1oc1ccccc12.[I-]`
// result 12

// query Another: `Cc1ccc(Nc2c3ccccc3[n+](C)c3c2oc2ccccc23)cc1F.[I-]`
// result 12

// query Another: `COc1ccc(Nc2c3ccccc3[n+](C)c3c2oc2ccccc23)cc1.[I-]`
// result 8

// query Another: `C[n+]1c2ccccc2c(Nc2ccc(Cl)cc2)c2[nH]c3ccccc3c21.[I-]`
// result 8

// query Another: `C[n+]1c2ccccc2c(Nc2ccc(Cl)cc2)c2oc3ccccc3c21.[I-]`
// result 12

// query Another: `Cc1cc(C)cc(Nc2c3ccccc3[n+](C)c3c2[nH]c2ccccc23)c1.[I-]`
// result 8

// query Another: `Cc1ccc(Nc2c3ccccc3[n+](C)c3c2[nH]c2ccccc23)cc1.[I-]`
// result 8

// query Another: `Cc1ccc(Nc2c3ccccc3[n+](C)c3c2oc2ccccc23)cc1C.[I-]`
// result 12

// query Another: `Cc1cc(F)ccc1Nc1c2ccccc2[n+](C)c2c1oc1ccccc12.[I-]`
// result 12

// query Another: `COc1ccccc1Nc1c2ccccc2[n+](C)c2c1[nH]c1ccccc12.[I-]`
// result 8

// query Another: `Cc1ccccc1Nc1c2ccccc2[n+](C)c2c1[nH]c1ccccc12.[I-]`
// result 12

----------
# System: Escherichia coli
# PROCEDURE DETAILS: Antibacterial activity against Escherichia coli ATCC 25922 after 18 hrs by Mueller-Hinton broth microdilution method
# Type: functional
# CONDITION SUMMARY: ATCC 25922, 18 h
VALUE TYPE: MIC (µg/mL)
Report the figure in µg/mL without appending any unit label.

// query Query (compound): `C[n+]1c2ccccc2c(Nc2ccc(OC(F)(F)F)cc2)c2[nH]c3ccccc3c21.[I-]` ; field requested: MIC
// result 6

// query Another: `CN[C@H](CC(C)C)C(=O)N[C@H]1C(=O)N[C@@H](CC(N)=O)C(=O)N[C@H]2C(=O)N[C@H]3C(=O)N[C@H](C(=O)N[C@H](C(=O)O)c4cc(O)cc(O)c4-c4cc3ccc4O)[C@H](O)c3ccc(c(Cl)c3)Oc3cc2cc(c3O[C@@H]2O[C@H](CO)[C@@H](O)[C@H](O)[C@H]2O[C@H]2C[C@](C)(N)[C@H](O)[C@H](C)O2)Oc2ccc(cc2Cl)[C@H]1O`
// result 2

----------
# Test system: Enterococcus faecium
# PROCEDURE DETAILS: Antibacterial activity against antibiotic-susceptile Enterococcus faecium ATCC 49624 after 18 hrs by brain heart infusion broth microdilution method
# Type: functional
# CONDITION SUMMARY: ATCC 49624, 18 h
I'd be grateful if you could share measured MIC for these entries.
Report the figure in µg/mL without appending any unit label.

// query Please state recorded MIC (tested on Enterococcus faecium) of `COc1ccccc1Nc1c2ccccc2[n+](C)c2c1[nH]c1ccccc12.[I-]`
// result 8

// query Another: `C[n+]1c2ccccc2c(Nc2ccc(F)cc2)c2[nH]c3ccccc3c21.[I-]`
// result 8

// query Another: `COc1ccc(Nc2c3ccccc3[n+](C)c3c2[nH]c2ccccc23)cc1.[I-]`
// result 4

// query Another: `C[n+]1c2ccccc2c(Nc2ccc(Cl)cc2)c2[nH]c3ccccc3c21.[I-]`
// result 6

// query Another: `Cc1ccc(Nc2c3ccccc3[n+](C)c3c2oc2ccccc23)cc1.[I-]`
// result 8

// query Another: `CCOc1ccc(Nc2c3ccccc3[n+](C)c3c2oc2ccccc23)cc1.[I-]`
// result 8

// query Another: `Cc1ccccc1Nc1c2ccccc2[n+](C)c2c1oc1ccccc12.[I-]`
// result 12

// query Another: `Cc1cc(F)ccc1Nc1c2ccccc2[n+](C)c2c1oc1ccccc12.[I-]`
// result 8

// query Another: `CCOc1ccc(Nc2c3ccccc3[n+](C)c3c2[nH]c2ccccc23)cc1.[I-]`
// result 4

// query Another: `C[n+]1c2ccccc2c(Nc2cccc(F)c2)c2[nH]c3ccccc3c21.[I-]`
// result 6

----------
I'd be grateful if you could share measured MIC for these entries.
# System: Enterococcus faecium
# PROCEDURE DETAILS: Antibacterial activity against antibiotic-susceptile Enterococcus faecium ATCC 49624 after 18 hrs by brain heart infusion broth microdilution method
# Type: functional
# CONDITION SUMMARY: ATCC 49624, 18 h
Report the figure in µg/mL without appending any unit label.

// query Query (molecule): `C[n+]1c2ccccc2c(Nc2ccccc2)c2oc3ccccc3c21.[I-]` ; field requested: MIC
// result 12

// query Another: `CCc1ccc(Nc2c3ccccc3[n+](C)c3c2oc2ccccc23)cc1.[I-]`
// result 8

// query Another: `CCc1ccc(Nc2c3ccccc3[n+](C)c3c2[nH]c2ccccc23)cc1.[I-]`
// result 6

// query Another: `C[n+]1c2ccccc2c(Nc2ccc(F)cc2)c2oc3ccccc3c21.[I-]`
// result 8

// query Another: `COc1ccc(Nc2c3ccccc3[n+](C)c3c2oc2ccccc23)cc1.[I-]`
// result 6

// query Another: `CCOc1ccccc1Nc1c2ccccc2[n+](C)c2c1oc1ccccc12.[I-]`
// result 8

// query Another: `COc1cccc(Nc2c3ccccc3[n+](C)c3c2oc2ccccc23)c1.[I-]`
// result 8

// query Another: `C[n+]1c2ccccc2c(Nc2ccccc2)c2[nH]c3ccccc3c21.[I-]`
// result 8

// query Another: `Cc1ccccc1Nc1c2ccccc2[n+](C)c2c1[nH]c1ccccc12.[I-]`
// result 8

// query Another: `COc1cccc(Nc2c3ccccc3[n+](C)c3c2[nH]c2ccccc23)c1.[I-]`
// result 8

----------
# Test system: Escherichia coli
# PROCEDURE DETAILS: Antibacterial activity against Escherichia coli ATCC 25922 after 18 hrs by Mueller-Hinton broth microdilution method
# Type: functional
# CONDITION SUMMARY: ATCC 25922, 18 h
Decide using MIC alone. Strictly below 8 µg/mL: yes (1). Equal to or above 8 µg/mL: no (0).

// query State whether 8 µg/mL exceeds MIC recorded for `C[n+]1c2ccccc2c(Nc2cccc(F)c2)c2[nH]c3ccccc3c21.[I-]` .
// result no (0)

// query Another: COc1ccc2cc3[n+](cc2c1OC)CCc1cc2c(cc1-3)OCO2.[Cl-] [BERBERINE CHLORIDE]
// result no (0)

// query Another: `Cc1ccc(Nc2c3ccccc3[n+](C)c3c2oc2ccccc23)cc1C.[I-]`
// result no (0)

// query Another: `COc1cccc(OC)c1C(=O)N[C@@H]1C(=O)N2[C@@H]1SC(C)(C)[C@@H]2C(=O)O`
// result yes (1)

// query Another: `CCc1ccc(Nc2c3ccccc3[n+](C)c3c2oc2ccccc23)cc1.[I-]`
// result no (0)

// query Another: `Cc1cc(C)cc(Nc2c3ccccc3[n+](C)c3c2oc2ccccc23)c1.[I-]`
// result no (0)

// query Another: `Cc1cc(F)ccc1Nc1c2ccccc2[n+](C)c2c1oc1ccccc12.[I-]`
// result no (0)

// query Another: `COc1ccc(Nc2c3ccccc3[n+](C)c3c2[nH]c2ccccc23)cc1.[I-]`
// result yes (1)

// query Another: `C[n+]1c2ccccc2c(Nc2ccc(F)cc2)c2oc3ccccc3c21.[I-]`
// result no (0)

// query Another: `Cc1ccc(Nc2c3ccccc3[n+](C)c3c2oc2ccccc23)cc1F.[I-]`
// result no (0)

// query Another: `C[n+]1c2ccccc2c(Nc2ccc(Cl)cc2)c2oc3ccccc3c21.[I-]`
// result no (0)

// query Another: `Cc1ccccc1Nc1c2ccccc2[n+](C)c2c1oc1ccccc12.[I-]`
// result no (0)

// query Another: `COc1ccccc1Nc1c2ccccc2[n+](C)c2c1oc1ccccc12.[I-]`
// result no (0)

Data credit: ChEMBL document CHEMBL4052617
